# inhibition at 100 µM per record follows
- Test system: Mycobacterium avium
- EXPERIMENT NOTES: Antimycobacterial activity against Mycobacterium avium ATCC 25291 at 100 uM by microplate alamar blue assay
- Type: functional
Report as a plain number; the unit % is understood.

Examples with answers:
| MOLECULE | PROPERTY | OBSERVED RESULT |
| --- | --- | --- |
| CCCCCCCCC#Cc1cn([C@H]2CC[C@@H](CO)O2)c(=O)[nH]c1=O | inhibition at 100 µM | 90 |
| O=c1[nH]c(=S)c(Cl)cn1[C@H]1CC[C@@H](CO)O1 | inhibition at 100 µM | 0 |
| N#Cc1cn(C2CCC(CO)O2)c2ncnc(N)c12 (stereo not given) | inhibition at 100 µM | 0 |
| CCCC#Cc1cn([C@H]2CC[C@@H](CO)O2)c(=O)[nH]c1=O | inhibition at 100 µM | 0 |
| CCCCCCCCCCCC#Cc1cn([C@H]2C[C@H](F)[C@@H](CO)O2)c(=O)[nH]c1=O | inhibition at 100 µM | 25 |

Summary for this molecule, "O=c1[nH]c(=O)n([C@H]2CC[C@@H](CO)O2)cc1Cl" : inhibition at 100 µM is 0

Measured inhibition at 100 µM, CCCCCCCCCCCCC#Cc1cn(C2CC(F)C(CO)O2)c(=O)[nH]c1=O (stereo not given) : 90

The molecule "CCCCCCCCCCCC#Cc1cn([C@H]2CC[C@@H](CO)O2)c(=O)[nH]c1=O" showed inhibition at 100 µM equal to 100

// field: inhibition at 100 µM; key: "NC(=O)c1cn([C@H]2CC[C@@H](CO)O2)c2ncnc(N)c12" ; value = 0

Quick note, inhibition at 100 µM for "CCSc1nc(N)nc2c1ncn2[C@H]1CC[C@@H](CO)O1" landed at 25

Recorded result, "CCCCCCCCC#Cc1cn([C@H]2C[C@H](F)[C@@H](CO)O2)c(=O)[nH]c1=O" , inhibition at 100 µM: 50

For "CCCCCCCCCC#Cc1cn([C@H]2CC[C@@H](CO)O2)c(=O)[nH]c1=O" the molecule record lists inhibition at 100 µM as 100

Form field inhibition at 100 µM, entry "Nc1ccn([C@@H]2CS[C@H](CO)O2)c(=O)n1" : 0

The molecule listed as "Nc1nc(N)c2ncn([C@H]3CC[C@@H](CO)O3)c2n1" shows inhibition at 100 µM equal to 0

Recorded inhibition at 100 µM (molecule "Nc1ccn([C@H]2CC[C@@H](CO)O2)c(=O)n1" ): 0

The molecule "CCCCCCCCCCCCC#Cc1cn([C@H]2CC[C@@H](CO)O2)c(=O)[nH]c1=O" showed inhibition at 100 µM equal to 100

The molecule "O=c1[nH]c(=O)n([C@H]2CC[C@@H](CO)O2)cc1C#Cc1ccccc1" showed inhibition at 100 µM equal to 25

Sample "CC(=O)OC[C@@H]1CC[C@H](n2cc(Cl)c(=S)[nH]c2=O)O1" ; inhibition at 100 µM observed: 0

The recorded inhibition at 100 µM for entry "CCCCCC#Cc1cn([C@H]2C[C@H](F)[C@@H](CO)O2)c(=O)[nH]c1=O" equals 0

inhibition at 100 µM for "O=c1[nH]c(=O)n([C@H]2CC[C@@H](CO)O2)cc1Br" is 0
